# Type: in vitro ADME
# run parameters: human, plasma, plasma protein binding (PPB)
Square brackets hold non-standard residues; d marks the D form. Side chains are listed from the residue outwards. Peptide text beside a SMILES is read from it. * marks the point of attachment. DOTA = O=C(O)CN1CCN(CC(=O)O)CCN(CC(=O)*)CCN(CC(=O)O)CC1; Palmitoyl = CCCCCCCCCCCCCCCC(=O)*

# compound, fraction unbound at 60 min
data = [
    ("CC[C@H](C)[C@H](N)C(=O)N[C@@H](CC(C)C)C(=O)N[C@@H](CCCNC(=N)N)C(=O)N[C@@H](Cc1c[nH]c2ccccc12)C(=O)N[C@@H](CO)C(=O)N[C@@H](CCCNC(=N)N)C(=O)N[C@@H](CCCCN)C(=O)N[C@@H](CC(C)C)C(=O)N1CCC[C@H]1C(=O)N[C@@H](CO)C(=O)N[C@H](C(=O)N[C@@H](CO)C(=O)N[C@@H](CCCCNC(=O)CN1CCN(CC(=O)O)CCN(CC(=O)O)CCN(CC(=O)O)CC1)C(=O)O)C(C)C [^177Lu-2, metal not drawn] (H-ILRWSRKLPSVSK(DOTA)-OH; N-terminus and C-terminus assumed)", 0.78),
    ("CC[C@H](C)[C@H](N)C(=O)N[C@@H](CC(C)C)C(=O)N[C@@H](CCCNC(=N)N)C(=O)N[C@@H](Cc1c[nH]c2ccccc12)C(=O)N[C@@H](CO)C(=O)N[C@@H](CCCNC(=N)N)C(=O)N[C@@H](CCCCNC(=O)CN1CCN(CC(=O)O)CCN(CC(=O)O)CCN(CC(=O)O)CC1)C(N)=O [^177Lu-5, metal not drawn] (H-ILRWSRK(DOTA)-NH2; N-terminus assumed)", 0.58),
    ("CC[C@H](C)[C@H](N)C(=O)N[C@@H](CC(C)C)C(=O)N[C@@H](CCCNC(=N)N)C(=O)N[C@@H](Cc1c[nH]c2ccccc12)C(=O)N[C@@H](CO)C(=O)N[C@@H](CCCNC(=N)N)C(=O)N[C@@H](CCCCN)C(=O)N[C@@H](CC(C)C)C(=O)N1CCC[C@H]1C(=O)N[C@@H](CS)C(=O)N[C@H](C(=O)N[C@@H](CO)C(=O)N[C@@H](CCCCNC(=O)CN1CCN(CC(=O)O)CCN(CC(=O)O)CCN(CC(=O)O)CC1)C(=O)O)C(C)C [^177Lu-1, metal not drawn]", 0.65),
    ("CCCCCCCCCCCCCCCC(=O)N[C@@H](CCC(=O)O)C(=O)NCCCC[C@H](NC(=O)[C@H](CCCNC(=N)N)NC(=O)[C@H](CO)NC(=O)[C@H](Cc1c[nH]c2ccccc12)NC(=O)[C@H](CCCNC(=N)N)NC(=O)[C@H](CC(C)C)NC(=O)[C@H](N)CC(C)C)C(=O)N[C@@H](CCCCNC(=O)CN1CCN(CC(=O)O)CCN(CC(=O)O)CCN(CC(=O)O)CC1)C(N)=O [^177Lu-9, metal not drawn] (H-[dL]LRWSRK([Glu-Palmitoyl])K(DOTA)-NH2; N-terminus assumed)", 0.63),
    ("CC[C@@H](C)[C@@H](N)C(=O)N[C@@H](CC(C)C)C(=O)N[C@@H](CCCNC(=N)N)C(=O)N[C@@H](Cc1c[nH]c2ccccc12)C(=O)N[C@@H](CO)C(=O)N[C@@H](CCCNC(=N)N)C(=O)N[C@@H](CCCCN)C(=O)N[C@@H](CCCCNC(=O)CN1CCN(CC(=O)O)CCN(CC(=O)O)CCN(CC(=O)O)CC1)C(N)=O [^177Lu-7, metal not drawn] (H-[dI]LRWSRKK(DOTA)-NH2; N-terminus assumed)", 0.61),
]

Data provenance: paper PMC10350915
